These entries and their values trace back to paper PMC9127068.

Sequence of the target: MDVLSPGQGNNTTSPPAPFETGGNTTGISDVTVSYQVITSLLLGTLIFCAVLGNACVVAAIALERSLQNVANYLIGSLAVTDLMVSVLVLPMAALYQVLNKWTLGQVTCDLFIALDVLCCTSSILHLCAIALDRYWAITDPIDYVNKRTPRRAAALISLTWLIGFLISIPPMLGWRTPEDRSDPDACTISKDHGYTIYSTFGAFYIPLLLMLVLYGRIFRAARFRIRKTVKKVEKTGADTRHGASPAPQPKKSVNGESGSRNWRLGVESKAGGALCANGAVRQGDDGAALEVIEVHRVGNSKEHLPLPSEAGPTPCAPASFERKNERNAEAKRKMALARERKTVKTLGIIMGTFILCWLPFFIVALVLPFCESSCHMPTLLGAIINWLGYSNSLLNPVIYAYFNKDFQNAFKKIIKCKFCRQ

Compound	Unit	Ki
CCCN(CCCCCCNS(=O)(=O)c1cccc2c(N(C)C)cccc12)C1CCc2cccc(O)c2C1 (centres unmarked) [5a]	nM	1.8
CCCN(CCCCCCNc1ccc([N+](=O)[O-])c2nonc12)C1CCc2cccc(O)c2C1 (centres unmarked) [5b]	nM	10
